# measured on: UniProt P53341
Reported IC50 values are given for each entry in this list.
Could you give me the number in µM? Just the number is fine.

Worked examples, 5 compounds total:
N#Cc1c(-c2ccccc2)c(N)c(-c2ccc(Cl)cc2)n2nc(-c3ccccc3)nc12 [Compound 15c]; 9.69
N#Cc1c(-c2ccccc2)c(N)c(-c2ccccc2Cl)n2nc(-c3ccccc3)nc12 [Compound 15e]; 60.6
Cc1ccc(-c2c(N)c(-c3ccc(Cl)cc3)n3nc(-c4ccccc4)nc3c2C#N)cc1 [Compound 15j]; 6.6
COc1ccc(-c2c(N)c(-c3ccc(Cl)cc3)c(C#N)c3nc(-c4ccccc4)nn23)cc1 [Compound 15r]; 50
COc1ccc(-c2c(N)c(-c3ccccc3)n3nc(-c4ccccc4)nc3c2C#N)cc1 [Compound 15m]; 9.18

Then this compound:
Form: item Cc1ccc(-c2c(N)c(-c3cccs3)n3nc(-c4ccccc4)nc3c2C#N)cc1 [Compound 15l] ; test system UniProt P53341; IC50: 21.5

----------
Reported pIC50 values are given for each entry in this list.
# measured on: α-glucosidase (Saccharomyces cerevisiae, UniProt P53341)
# Sequence (P53341 whole entry): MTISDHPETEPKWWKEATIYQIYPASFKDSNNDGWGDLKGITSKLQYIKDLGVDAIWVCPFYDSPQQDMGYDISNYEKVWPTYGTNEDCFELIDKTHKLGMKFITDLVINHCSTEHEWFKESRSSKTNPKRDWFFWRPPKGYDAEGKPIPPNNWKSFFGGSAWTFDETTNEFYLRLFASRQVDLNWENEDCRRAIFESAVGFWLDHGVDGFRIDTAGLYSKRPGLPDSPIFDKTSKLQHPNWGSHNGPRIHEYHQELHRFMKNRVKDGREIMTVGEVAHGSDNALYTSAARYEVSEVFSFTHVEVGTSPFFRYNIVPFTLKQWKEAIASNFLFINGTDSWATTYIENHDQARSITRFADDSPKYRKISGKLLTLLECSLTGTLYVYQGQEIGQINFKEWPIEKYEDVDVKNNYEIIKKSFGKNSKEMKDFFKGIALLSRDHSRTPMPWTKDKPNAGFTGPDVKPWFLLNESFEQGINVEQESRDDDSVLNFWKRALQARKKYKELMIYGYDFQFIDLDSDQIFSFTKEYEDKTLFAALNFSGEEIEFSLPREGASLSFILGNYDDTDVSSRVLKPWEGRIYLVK
# assay protocol: α-Glucosidase inhibition assay
# Type: biochemical
To interpret pIC50, take it as minus log10 of a concentration measured in moles per litre.

Cc1ccc(-c2c(N)c(-c3ccccc3)n3nc(-c4ccccc4)nc3c2C#N)cc1 [Compound 15h]; 4.84

GET /value?item= N#Cc1c(-c2ccc(Cl)cc2)c(N)c(-c2ccc(Cl)cc2)n2nc(-c3ccccc3)nc12 [Compound 15s] &field=pIC50 returns 4.50

GET /value?item= COc1ccc(-c2c(N)c(-c3ccc(Cl)cc3)n3nc(-c4ccccc4)nc3c2C#N)cc1 [Compound 15o] &field=pIC50 returns 5.12

GET /value?item= COc1ccc(-c2c(N)c(-c3ccc(OC)cc3)n3nc(-c4ccccc4)nc3c2C#N)cc1 [Compound 15n] &field=pIC50 returns 4.65

GET /value?item= N#Cc1c(-c2ccccc2)c(N)c(-c2ccccc2)n2nc(-c3ccc(Cl)cc3)nc12 [Compound 15v] &field=pIC50 returns 4.60

GET /value?item= Cc1ccc(-c2c(N)c(-c3ccc(Br)cc3)n3nc(-c4ccccc4)nc3c2C#N)cc1 [Compound 15k] &field=pIC50 returns 4.52

GET /value?item= COc1ccc(-c2nc3c(C#N)c(-c4ccccc4)c(N)c(-c4ccccc4)n3n2)cc1 [Compound 15u] &field=pIC50 returns 4.83

GET /value?item= COc1ccc(-c2c(N)c(-c3ccc(C)cc3)c(C#N)c3nc(-c4ccccc4)nn23)cc1 [Compound 15i] &field=pIC50 returns 5.07

----------
# measured on: α-glucosidase (Saccharomyces cerevisiae, UniProt P53341)
measured endpoint: pIC50
To interpret pIC50, take it as minus log10 of a concentration measured in moles per litre.

Form: item N#Cc1c(-c2ccc(Cl)cc2)c(N)c(-c2ccccc2)n2nc(-c3ccccc3)nc12 [Compound 15q] ; test system α-glucosidase (Saccharomyces cerevisiae, UniProt P53341); pIC50: 4.42

Form: item N#Cc1c(-c2ccccc2)c(N)c(-c2cccs2)n2nc(-c3ccccc3)nc12 [Compound 15g] ; test system α-glucosidase (Saccharomyces cerevisiae, UniProt P53341); pIC50: 4.34

Form: item N#Cc1c(-c2ccccc2)c(N)c(-c2ccc(Br)cc2)n2nc(-c3ccccc3)nc12 [Compound 15f] ; test system α-glucosidase (Saccharomyces cerevisiae, UniProt P53341); pIC50: 4.50
